experimentalSystem: Retinoic acid receptor RXR-alpha (Homo sapiens) (UniProt P19793)
Sequence (P19793 whole entry, looked up): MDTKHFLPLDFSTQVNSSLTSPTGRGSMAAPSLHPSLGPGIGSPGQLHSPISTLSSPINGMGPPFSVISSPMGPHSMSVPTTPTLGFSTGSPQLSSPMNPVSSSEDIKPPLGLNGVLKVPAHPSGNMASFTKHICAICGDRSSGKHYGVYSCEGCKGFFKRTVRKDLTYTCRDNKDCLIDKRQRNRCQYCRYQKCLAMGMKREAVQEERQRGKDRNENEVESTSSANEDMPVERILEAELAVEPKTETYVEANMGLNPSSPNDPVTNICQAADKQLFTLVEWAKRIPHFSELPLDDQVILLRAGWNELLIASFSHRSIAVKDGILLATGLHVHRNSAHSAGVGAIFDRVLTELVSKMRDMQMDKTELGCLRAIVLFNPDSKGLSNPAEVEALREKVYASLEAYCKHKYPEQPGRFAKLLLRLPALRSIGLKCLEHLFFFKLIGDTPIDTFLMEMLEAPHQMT
measurementDescription: OT_NURR1_NURR1RXRa_1440: Odyssey Thera (OT) 24-hour HEK293T Protein Complementation Assay for Nurr1/retinoid X receptor (RXR) (AID 2283386)
Results filed as inconclusive are left out. The source made the active and inactive calls. Rule for the calls: active = hit-call score of the fitted dose curve at least 0.9, where 1 is the maximum; inconclusive = response in the unintended direction; inactive = score below 0.9.
The reply should be one of these categories: yes (1) for active, no (0) for inactive

Use the examples below as a reference point.
molecule=Nc1cc2c3c(c1)C(c1ccccc1)=N[C@@H](NC(=O)c1cccnc1)C(=O)N3CC2 group="no (0)"
molecule=CCOc1ccc(C(C)(C)COCc2cccc(Oc3ccccc3)c2)cc1 group="no (0)"
molecule=FC(F)(F)c1ccc(Cl)cc1 group="no (0)"

Q) Please indicate how the test categorized CCCCC(CC)COC(=O)c1c(Br)c(Br)c(Br)c(Br)c1C(=O)OCC(CC)CCCC (stereo not drawn) .
A) no (0)

Q) Please indicate how the test categorized CCCCOCCOP(=O)(OCCOCCCC)OCCOCCCC .
A) no (0)

Q) Please indicate how the test categorized CCOP(=S)(Oc1ccc([N+](=O)[O-])cc1)c1ccccc1 (stereo not drawn) .
A) no (0)

Q) Please indicate how the test categorized c1nc[nH]n1 .
A) no (0)

Q) Please indicate how the test categorized COCCOCCO .
A) no (0)

Q) Please indicate how the test categorized c1cc2c3c(cccc3c1)CC2 .
A) no (0)

Q) Please indicate how the test categorized CCN(CC)c1ccccc1 .
A) no (0)
